B1: HHH_rd2_0155 (parent)
chain: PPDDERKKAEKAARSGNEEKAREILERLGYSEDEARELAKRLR

Variants of: B1
PROCEDURE SUMMARY: folding stability dG (cDNA display proteolysis); higher = more stable
DETAILS: PBS, room temperature
Reported values of folding stability dG for individual entries
RECORDED METRIC: folding stability dG

mutation_string=L28P recorded_metric="folding stability dG" measurement="0.261 kcal/mol"
mutation_string=E19G recorded_metric="folding stability dG" measurement="1.6 kcal/mol"
mutation_string=E34I recorded_metric="folding stability dG" measurement="1.44 kcal/mol"
mutation_string=R43F recorded_metric="folding stability dG" measurement="2.48 kcal/mol"
mutation_string=E23H recorded_metric="folding stability dG" measurement="1.85 kcal/mol"
mutation_string=G29H recorded_metric="folding stability dG" measurement="0.665 kcal/mol"
mutation_string=Y30K recorded_metric="folding stability dG" measurement="0.407 kcal/mol"
mutation_string=E26S recorded_metric="folding stability dG" measurement="1.72 kcal/mol"
mutation_string=R43Q recorded_metric="folding stability dG" measurement="1.45 kcal/mol"
mutation_string=S31I recorded_metric="folding stability dG" measurement="0.504 kcal/mol"
mutation_string=E19N recorded_metric="folding stability dG" measurement="1.81 kcal/mol"
mutation_string=R6L recorded_metric="folding stability dG" measurement="3 kcal/mol"
mutation_string=S31G recorded_metric="folding stability dG" measurement="1.44 kcal/mol"
mutation_string=R22W recorded_metric="folding stability dG" measurement="1.13 kcal/mol"
mutation_string=A12T recorded_metric="folding stability dG" measurement="1.24 kcal/mol"
mutation_string=D4G recorded_metric="folding stability dG" measurement="1.75 kcal/mol"
mutation_string=E23W recorded_metric="folding stability dG" measurement="1.83 kcal/mol"
mutation_string=P2T recorded_metric="folding stability dG" measurement="2.02 kcal/mol"
mutation_string=E34C recorded_metric="folding stability dG" measurement="1.92 kcal/mol"
mutation_string=E23A recorded_metric="folding stability dG" measurement="2.06 kcal/mol"
mutation_string=L38V recorded_metric="folding stability dG" measurement="1.12 kcal/mol"
mutation_string=K20A recorded_metric="folding stability dG" measurement="2.1 kcal/mol"
mutation_string=K7W recorded_metric="folding stability dG" measurement="2.15 kcal/mol"
mutation_string=A13V recorded_metric="folding stability dG" measurement="1.19 kcal/mol"
mutation_string=E5M recorded_metric="folding stability dG" measurement="2.33 kcal/mol"
mutation_string=A13M recorded_metric="folding stability dG" measurement="1.35 kcal/mol"
mutation_string=Y30I recorded_metric="folding stability dG" measurement="1.06 kcal/mol"
mutation_string=Y30A recorded_metric="folding stability dG" measurement="0.811 kcal/mol"
mutation_string=E32F recorded_metric="folding stability dG" measurement="1.96 kcal/mol"

Provenance of the data: the MegaScale stability set (Tsuboyama et al. 2023)
